- targetEntity: Voltage-gated potassium channel subunit beta-2 (Rattus norvegicus)
- experimentSummary: inhibitors of rat Kvbeta2 reductase activity – biochemical, NADPH fluorescence, primary screen (AID 622);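 note: slope of raw intensity against log time taken from 70 to 1610 s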
- condition: recombinant KvBeta, 4-cyanobenzaldehyde reduction, at 10 µM, stronger effect = higher value
resultType: fluorescence slope

INSERT INTO measurements (molecule, valuemeasured) VALUES
  ('CC1CCN(CC(O)COC2CCC(C(C)(C)C)CC2)CC1 (stereo unspecified)', -0.453),
  ('O=C(c1ncc[nH]1)c1ccccc1C(=O)N1CCOCC1', -0.515),
  ('CCOc1ccc(OCC)c(NC(=O)CN2CCN(C(=O)c3ccco3)CC2)c1', -0.546),
  ('CCN(CC)c1nc2cc(OC)ccc2cc1C#N', -0.584),
  ('COc1ccc2cc(CN(Cc3ccco3)C(c3nnnn3C3CCCCC3)C(C)C)c(=O)[nH]c2c1 (stereo unspecified)', -0.451),
  ('O=C(OCN1C(=O)c2ccccc2C1=O)c1ccc2c(=O)n3c(nc2c1)CCC3', -0.581);

====

Entries annotated with measured inhibition
- experimentSummary: blockers of RIG-like receptor reporter activation – cell-based, Sendai virus stimulus, luciferase, 10K MLSCN set, TLR/RLR signaling modifier project, primary screen (AID 602276);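 note: firefly luciferase from ISG56 promoter only with Renilla not read in this screen; 0% = Sendai virus plus DMSO and 100% = medium plus DMSO without virus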
- condition: HEK293 RL24 IRF3 luciferase reporter, at 10 µM, stronger effect = higher value
resultType: inhibition (%)

INSERT INTO results (compound, valuemeasured) VALUES
  ('COc1cc(OC)cc(C(=O)N2CCN(C(=O)c3ccc(OC)c(OC)c3)CC2)c1', 4.07),
  ('CC(=O)Nc1c(O)n(C)c2ccccc12', -8.37),
  ('CCOC(=O)C1CCCN(C(=O)c2cc(=O)c3ccccc3o2)C1 (stereo unspecified)', 14.5),
  ('COC(=O)c1ccccc1NC(=O)c1noc2c1CCC2', 13.1),
  ('O=C(CCNC(=O)Cn1ccc2ccccc2c1=O)NCCN1CCc2ccccc2C1', -3.36),
  ('CN1CCN(C(=O)CCC(=O)c2ccc(F)cc2)CC1', 5.42);

====

- experimentSummary: inhibitors of TNFa-induced NFkB p65 translocation, primary screen, imaging, HUVEC, MLSMR starter and 10KST1 sets (AID 438);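 note: compound added about 3h40 before a 20 min TNFalpha stimulation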
- condition: HUVEC TNFa-induced p65 nuclear translocation; measured here: nuclei count (cytotoxicity indicator), at 2.08 µM
Entries annotated with measured cell count
resultType: cell count

INSERT INTO assay_data (compound, resulttype, valuemeasured) VALUES
  ('C=CCNc1nc2c(c(=O)n(C)c(=O)n2C)n1CCCCCC', 'cell count', 438),
  ('CCOC(=O)c1c(C)[nH]c(C=Nc2ccccc2)c1O', 'cell count', 666),
  ('CC(=O)c1cccc(NC(=O)CCNS(=O)(=O)c2cccc3nsnc23)c1', 'cell count', 439),
  ('CCN(CC)S(=O)(=O)c1ccc(NC(=O)c2cccc3c2C(=O)N(CCOC)C3)cc1', 'cell count', 778),
  ('CCOc1ccc(NCCC(=O)c2ccc3c(c2)OCO3)cc1', 'cell count', 624),
  ('O=C(COC(=O)CCc1c[nH]c2ccccc12)NC1CCS(=O)(=O)C1 (stereo not drawn)', 'cell count', 473),
  ('COc1cccc(NC(=O)CSc2nnnn2C(C)C)c1', 'cell count', 738),
  ('COc1ccc(CCNC(=O)C2CCCN(c3nn4c(=O)cc(C)nc4s3)C2)cc1OC (stereo not drawn)', 'cell count', 371),
  ('Cc1ccc(C)n1-c1ccc(N2CCOCC2)cc1', 'cell count', 406),
  ('CCn1c(SCC(=O)N2CCN(c3ccc(Cl)cc3)CC2)nc2ccccc2c1=O', 'cell count', 324),
  ('CCOC(=O)C1CCCN(C(=O)c2cc3c(C)nc4ccccc4c3o2)C1 (stereo not drawn)', 'cell count', 525),
  ('O=C(NC1CCCCC1)c1nc2c(nnn2Cc2ccccc2Cl)c(=O)[nH]1', 'cell count', 584),
  ('COc1ccc(C)cc1S(=O)(=O)N(C)CC(=O)Nc1ccc2c(c1)OCO2', 'cell count', 505),
  ('Cc1ccc2nc(-c3ccc(S(=O)(=O)N4CCOCC4)cc3)cn2c1', 'cell count', 591),
  ('COCc1nnc(NS(=O)(=O)c2ccc(Br)cc2)s1', 'cell count', 757),
  ('CCc1ccccc1NC(=O)C(C#N)Cc1cccnc1 (stereo not drawn)', 'cell count', 575),
  ('CN(C)c1ccc(C2C3=C(CCCC3=O)OC3=C2C(=O)CCC3)cc1', 'cell count', 571),
  ('CCOc1ccccc1-n1nnnc1SCC(=O)Nc1cc2oc3ccccc3c2cc1OC', 'cell count', 374),
  ('c1ccc(CCc2nn3c(Cn4cnc5ccccc54)nnc3s2)cc1', 'cell count', 598),
  ('CC1(C)CC2CC(C)(CN2S(=O)(=O)c2ccc(N)cc2)C1 (stereo not drawn)', 'cell count', 613),
  ('CC(C)CCNC(=O)CCNS(=O)(=O)c1ccc(Cl)cc1', 'cell count', 538),
  ('O=C(CSc1nnc(-c2ccccc2)o1)N1CCc2ccccc2C1', 'cell count', 400),
  ('CCn1c(Cc2ccccc2)nnc1SCC(=O)Nc1nc2ccccc2s1', 'cell count', 741);

====

- experimentSummary: endothelial E-selectin expression blockers – imaging, HUVEC, immunofluorescence, MLSMR starter and 10KST1 sets, primary screen (AID 487);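 note: 100% = median nuclei count of all wells on the same plate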
- condition: HUVEC TNFalpha-induced E-selectin immunofluorescence imaging, at 2 µM; measured here: cell number, toxicity
Entries annotated with measured nuclei count
resultType: nuclei count (%)

INSERT INTO assay_data (molecule, unit, valuemeasured) VALUES
  ('O=C(CSc1nc(-c2ccco2)cc(C(F)(F)F)n1)N1CCCc2ccccc21', '%', 114),
  ('CCCSc1nc2c(c(=O)[nH]c(=O)n2C)n1CCc1ccccc1', '%', 110),
  ('COCCNc1nc(SCC(=O)N2CCN(c3ccccc3)CC2)nc2ccccc12', '%', 105),
  ('Cc1ccc2nc3c(cc2c1)CN(Cc1ccco1)C(=NCC1CCCO1)S3 (configuration not stated)', '%', 106),
  ('COc1cc(OC)cc(-c2nc3cc(C)ccc3o2)c1', '%', 99.4),
  ('CCOc1nc(-c2ccccc2)ccc1-c1noc(-c2cccnc2)n1', '%', 91.1),
  ('COC(=O)c1ccc(CSc2nc3ccccc3s2)o1', '%', 104),
  ('Nc1nc(Nc2ccc(Cl)cc2Cl)nc(C(F)(F)F)n1', '%', 105),
  ('COc1ccc(C)cc1NC(=O)c1nnn(Cc2cccc(F)c2)c1N', '%', 127),
  ('CC(NO)C(C)(C)NO (configuration not stated)', '%', 126),
  ('CC1CCN(S(=O)(=O)c2ccc3[nH]c(=O)cc(C(=O)O)c3c2)CC1', '%', 104),
  ('Cc1cccc(C(=O)O)c1NC(=O)c1ccc(F)cc1', '%', 97.3);

====

Entries annotated with measured fluorescence slope
- targetEntity: Muscarinic acetylcholine receptor M4 (Homo sapiens)
- experimentSummary: M4-linked GIRK flux change, two-sided – cell-based, HEK293 M4/GIRK, thallium flux, BTC-AM, M4 allosteric agonist project, primary screen (AID 625);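 note: thallium influx through GIRK channels coupled to M4 in HEK293 cells with BTC-AM dye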
- condition: at 10 µM, actives lie on both sides
resultType: fluorescence slope

INSERT INTO results (compound, targetentity, resulttype, valuemeasured) VALUES
  ('Cc1ccc(-c2[nH]nc3c2C(c2ccoc2)C(C#N)=C(N)O3)cc1C (centres undefined)', 'Muscarinic acetylcholine receptor M4 (Homo sapiens)', 'fluorescence slope', 0.00509),
  ('CCCN(S(=O)(=O)c1ccc(OCC)cc1)S(=O)(=O)c1cccs1', 'Muscarinic acetylcholine receptor M4 (Homo sapiens)', 'fluorescence slope', 0.00646),
  ('CCOC(=O)c1ccc(NC(=O)CC2SC(=NC)N(C)C2=O)cc1 (centres undefined)', 'Muscarinic acetylcholine receptor M4 (Homo sapiens)', 'fluorescence slope', 0.00547),
  ('CCS(=O)(=O)c1nc2ccccc2n1CC(=O)N1CCCCC1', 'Muscarinic acetylcholine receptor M4 (Homo sapiens)', 'fluorescence slope', 0.00578),
  ('O=C(N1CCOCC1)N1CCC(NC(=O)C23CC4CC(CC(C4)C2)C3)CC1', 'Muscarinic acetylcholine receptor M4 (Homo sapiens)', 'fluorescence slope', 0.00404),
  ('Cc1ccc(CNC(=O)c2coc(=O)c3ccccc23)o1', 'Muscarinic acetylcholine receptor M4 (Homo sapiens)', 'fluorescence slope', 0.00482),
  ('CCCCC(NC(C)=O)c1nc2ccccc2n1CCC (centres undefined)', 'Muscarinic acetylcholine receptor M4 (Homo sapiens)', 'fluorescence slope', 0.00541),
  ('COc1ccccc1N1CCN(C(=O)C2CC=CCC2C(=O)O)CC1 (centres undefined)', 'Muscarinic acetylcholine receptor M4 (Homo sapiens)', 'fluorescence slope', 0.00504),
  ('O=S(=O)(NCCCCCNS(=O)(=O)c1ccccc1)c1ccccc1', 'Muscarinic acetylcholine receptor M4 (Homo sapiens)', 'fluorescence slope', 0.00488),
  ('CC(=O)Nc1ccc(NC(=O)c2ccccc2N(C)S(C)(=O)=O)cc1', 'Muscarinic acetylcholine receptor M4 (Homo sapiens)', 'fluorescence slope', 0.00563),
  ('CN(C)c1nc(Nc2ccc(Cl)cc2)nc(OCC#N)n1', 'Muscarinic acetylcholine receptor M4 (Homo sapiens)', 'fluorescence slope', 0.00241),
  ('CC(=O)Nc1ccc(OC(=O)c2cccnc2)cc1', 'Muscarinic acetylcholine receptor M4 (Homo sapiens)', 'fluorescence slope', 0.00601),
  ('Nc1nc(-c2ccccc2)cc(C(F)(F)F)n1', 'Muscarinic acetylcholine receptor M4 (Homo sapiens)', 'fluorescence slope', 0.00753),
  ('CN(C=O)CP(=O)(O)CCN1CCCC1=O', 'Muscarinic acetylcholine receptor M4 (Homo sapiens)', 'fluorescence slope', 0.00412),
  ('C1=CC2CC1CC2CN1CCN(c2ccccc2)CC1 (centres undefined)', 'Muscarinic acetylcholine receptor M4 (Homo sapiens)', 'fluorescence slope', 0.00448),
  ('Cc1cccc(Cn2c(=O)n(Cc3ccco3)c(=O)c3ccccc32)c1', 'Muscarinic acetylcholine receptor M4 (Homo sapiens)', 'fluorescence slope', 0.00404),
  ('COc1ccccc1N1CCN(c2nc3ccccc3nc2C(C#N)C(=O)OC(C)C)CC1 (centres undefined)', 'Muscarinic acetylcholine receptor M4 (Homo sapiens)', 'fluorescence slope', 0.00467),
  ('Cc1cc(C)nc(N2CCCC(C(=O)Nc3nc4ccc(S(C)(=O)=O)cc4s3)C2)n1 (centres undefined)', 'Muscarinic acetylcholine receptor M4 (Homo sapiens)', 'fluorescence slope', 0.00564),
  ('CC(=O)Oc1ccc(CCC(C)OC(C)=O)cc1 (centres undefined)', 'Muscarinic acetylcholine receptor M4 (Homo sapiens)', 'fluorescence slope', 0.00491),
  ('Oc1ccccc1C1=Nc2nc3ccccc3n2C(c2ccccc2)C1 (centres undefined)', 'Muscarinic acetylcholine receptor M4 (Homo sapiens)', 'fluorescence slope', 0.00255),
  ('CCOC(=O)c1ccc(N2C(=O)C3CC=CCC3C2=O)cc1 (centres undefined)', 'Muscarinic acetylcholine receptor M4 (Homo sapiens)', 'fluorescence slope', 0.00473),
  ('O=c1[nH]c2ccccc2nc1NCCN1CCOCC1', 'Muscarinic acetylcholine receptor M4 (Homo sapiens)', 'fluorescence slope', 0.00364),
  ('CCOc1ccccc1C(=O)NCCCn1ccnc1', 'Muscarinic acetylcholine receptor M4 (Homo sapiens)', 'fluorescence slope', 0.00757),
  ('COc1cccc(NS(=O)(=O)c2cc(C)sc2C)c1', 'Muscarinic acetylcholine receptor M4 (Homo sapiens)', 'fluorescence slope', 0.00503);
